target-under-test: ER-β ligand binding domain (LBD) (UniProt Q92731)
pKi: −log10 of the molar value.
endpoint: pKi

smiles-data	numeric-readout
Cc1cccc(C(=O)N(c2ccc(O)cc2)c2ccc(O)cc2)c1C	7.44

* * *

target-under-test: ER-α ligand binding domain (LBD)
endpoint: Ki (nM)

molecule	numeric-readout
Cc1cccc(C(=O)N(c2ccc(O)cc2)c2ccc(O)cc2)c1C [Compound V]	7.13

* * *

assay-summary: Oral bioavailability in dogs
Format: in vivo
run-conditions: dog, plasma, depending on the formulation and route of administration

smiles-data	bioavailability
O=C(c1ccc(O)c(F)c1)N(c1ccc(O)cc1)c1ccc(F)cc1	3 to 12%
